- TESTED ON: T1, His-tagged P3028 (human, also: His-tag, terminus and sequence not given here)
- T1 construct: in solution at 0.5 ug/mL over the peptide cards; found with anti-His-tag antibody and rabbit anti-mouse peroxidase (rampo); also called PGE73; not shown: His-tag
- T1 peptide: VFDEFKPLVEEPQNLIK
- ASSAY EXPLANATION: PEPSCAN chip ELISA, His-P3028 in solution;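 also: score is the raw OD at 405 nm from peroxidase colour with ABTS, imaged by CCD camera before and after staining, with wells showing air bubbles set to zero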
No end group written: not given here.
REPORTED ENDPOINT: RAMPO Score
Answer as a quantity: numeral, then unit.

Sample answers from the record:
DKLDTFFVKLSLFTER [SEQ ID NO 269]	373 rampo score
KKLDTFWVKLSLFTER [SEQ ID NO 425]	380 rampo score
KKLDTFFAKLSLFTER [SEQ ID NO 495]	299 rampo score
KKLDTFFVKLELFTER [SEQ ID NO 532]	234 rampo score

Note: attention shifts to another entry.
Consider KKLDTFFVKYSLFTER [SEQ ID NO 344] . Its measured RAMPO Score is 382 rampo score
